Please provide measured IC50 for the entries that follow.
# assay-system: human P2Y12 receptor (Homo sapiens, UniProt Q9H244)
# Sequence (Q9H244 whole entry): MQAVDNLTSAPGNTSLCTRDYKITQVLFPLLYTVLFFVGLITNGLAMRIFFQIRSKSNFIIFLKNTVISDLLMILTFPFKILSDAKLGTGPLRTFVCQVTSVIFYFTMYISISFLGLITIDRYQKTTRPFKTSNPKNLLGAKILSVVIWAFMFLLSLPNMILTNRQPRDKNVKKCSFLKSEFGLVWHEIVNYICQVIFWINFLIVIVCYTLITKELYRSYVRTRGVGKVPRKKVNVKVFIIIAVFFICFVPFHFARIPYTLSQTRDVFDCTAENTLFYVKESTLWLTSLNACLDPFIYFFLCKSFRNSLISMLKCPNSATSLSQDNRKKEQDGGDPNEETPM
# test-protocol: P2Y12 receptor binding assay
# conditions: CHO cells with recombinant human P2Y12 receptor; tritium-labeled 2-methyl-S-ADP; 2 hours at RT
Answers are plain numbers, in nM.

Please review the following examples before continuing.
compound: CCCCNc1cc(C(=O)N[C@@H](CCC(=O)O)C(=O)N2CCN(C(=O)OCC)CC2)nc(-c2ccccc2)c1F
assay-system: human P2Y12 receptor (Homo sapiens, UniProt Q9H244)
IC50, nM: 386
//
compound: CCCCOC(=O)N1CCN(C(=O)[C@H](CCC(=O)OC(C)(C)C)NC(=O)c2cc(N3CC[C@H](OC)C3)cc(-c3ccccc3)n2)CC1
assay-system: human P2Y12 receptor (Homo sapiens, UniProt Q9H244)
IC50, nM: 1760
//
compound: CCOC(=O)N1CCN(C(=O)[C@H](CCC(=O)O)NC(=O)c2cc(-c3ccsc3)cc(-c3ccccc3)n2)CC1
assay-system: human P2Y12 receptor (Homo sapiens, UniProt Q9H244)
IC50, nM: 67
//
compound: CCOC(=O)N1CCN(C(=O)[C@H](CCC(=O)OC(C)(C)C)NC(=O)c2cc(Cl)cc(-c3ccccc3)n2)CC1
assay-system: human P2Y12 receptor (Homo sapiens, UniProt Q9H244)
IC50, nM: 2150
//
compound: CCCCOC(=O)N1CCN(C(=O)[C@@H](NC(=O)c2cc(N3CC[C@H](OC)C3)cc(-c3ccccc3)n2)C(C)C)CC1
assay-system: human P2Y12 receptor (Homo sapiens, UniProt Q9H244)
IC50, nM: 109

Provide each entry's IC50 from the list below.
1. CCOC(=O)N1CCN(C(=O)[C@H](CCC(=O)O)NC(=O)c2cc(OC3CCOC3)cc(-c3ccccc3)n2)CC1 (stereo partly shown)
2. CCOC(=O)N1CCN(C(=O)[C@H](CO)NC(=O)c2cc(-c3ccccc3)cc(-c3ccccc3)n2)CC1

1: 94; 2: 204

Every entry's value here was drawn from patent US8093250B2.
